Recorded measurements of pIC50, one per entry
study_target: Histone deacetylase 3/Nuclear receptor corepressor 2 (HDAC3/NCoR2) (Homo sapiens)
assay_comment: Inhibition of recombinant human full-length C-terminal His-tagged HDAC3 (395 to 489 residues)/human NCOR2 expressed in baculovirus infected Sf9 insect cells using Boc-L-Lys(Ac)-AMC as substrate pretreated for 5 mins followed by substrate addition measured after 35 mins by fluorescence assay
Keep in mind that pIC50 stands for -log10 of concentration in molar terms.

Below, 4 molecules whose answers are already recorded.
Record CC(C)(C)c1ccc(C2c3ccccc3CCN2CCC(=O)NO)cc1 (configuration not stated) , field pIC50: 4.54

Record `O=C(CCCCCCNCc1ccccc1)NO` , field pIC50: 6.37

Record `O=C(CCNCc1ccccc1)NO` , field pIC50: 4.14

Record `O=C(CCCCCCN(Cc1ccccc1)Cc1ccccc1)NO` , field pIC50: 5.96

Further cases:
Record O=C(CCN1CCc2ccccc2C1c1ccccc1)NO (configuration not stated) , field pIC50: 5.00

Record `O=C(CCCCCCN1CCc2ccccc2C1)NO` , field pIC50: 7.01

Record O=C(CCN1CCc2ccccc2C1C1CCCCC1)NO (configuration not stated) , field pIC50: 4.12

----------
study_target: Histone deacetylase 1 (Homo sapiens, UniProt Q13547)
Sequence (Q13547 whole entry): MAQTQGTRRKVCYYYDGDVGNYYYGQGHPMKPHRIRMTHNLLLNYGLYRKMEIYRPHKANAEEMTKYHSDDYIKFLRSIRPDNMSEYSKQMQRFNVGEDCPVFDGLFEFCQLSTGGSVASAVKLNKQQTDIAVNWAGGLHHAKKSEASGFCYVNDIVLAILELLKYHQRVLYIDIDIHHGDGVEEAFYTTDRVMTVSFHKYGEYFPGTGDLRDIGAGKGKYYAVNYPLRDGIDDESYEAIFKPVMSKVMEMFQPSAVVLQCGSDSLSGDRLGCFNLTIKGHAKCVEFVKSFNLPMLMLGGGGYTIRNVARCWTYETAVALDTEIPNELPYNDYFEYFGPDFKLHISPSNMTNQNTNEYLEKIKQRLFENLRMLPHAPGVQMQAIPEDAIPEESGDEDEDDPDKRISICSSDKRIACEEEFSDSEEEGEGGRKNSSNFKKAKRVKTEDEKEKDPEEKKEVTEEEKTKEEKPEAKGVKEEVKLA
assay_comment: Inhibition of recombinant full-length human C-terminal FLAG-His-tagged HDAC1 expressed in baculovirus infected Sf9 insect cells using Boc-L-Lys(Ac)-AMC as substrate preincubated for 5 mins followed by substrate addition measured after 35 mins by fluorescence assay
Hi! Just check whether IC50 is below 4 µM. Below gives Yes, equal or above gives No.

Here are 3 compounds together with their reported answers.
Threshold test, IC50 < 4 µM: O=C(CCN1CCc2ccccc2C1c1ccccc1)NO (stereo not drawn)
No

Threshold test, IC50 < 4 µM: O=C(CCN1CCc2ccccc2C1c1ccc(-c2ccccc2)cc1)NO (stereo not drawn)
No

Threshold test, IC50 < 4 µM: CCOc1ccc(C2c3ccccc3CCN2CCC(=O)NO)cc1 (stereo not drawn)
No

Further cases:
Threshold test, IC50 < 4 µM: `O=C(CCNCc1ccccc1)NO`
No

Threshold test, IC50 < 4 µM: `O=C(CCCCN(Cc1ccccc1)Cc1ccccc1)NO`
Yes

Threshold test, IC50 < 4 µM: O=C(CCN1CCc2ccccc2C1c1cccc(C(F)(F)F)c1)NO (stereo not drawn)
No

----------
study_target: Histone deacetylase 2 (Homo sapiens, UniProt Q92769)
Sequence (Q92769 whole entry): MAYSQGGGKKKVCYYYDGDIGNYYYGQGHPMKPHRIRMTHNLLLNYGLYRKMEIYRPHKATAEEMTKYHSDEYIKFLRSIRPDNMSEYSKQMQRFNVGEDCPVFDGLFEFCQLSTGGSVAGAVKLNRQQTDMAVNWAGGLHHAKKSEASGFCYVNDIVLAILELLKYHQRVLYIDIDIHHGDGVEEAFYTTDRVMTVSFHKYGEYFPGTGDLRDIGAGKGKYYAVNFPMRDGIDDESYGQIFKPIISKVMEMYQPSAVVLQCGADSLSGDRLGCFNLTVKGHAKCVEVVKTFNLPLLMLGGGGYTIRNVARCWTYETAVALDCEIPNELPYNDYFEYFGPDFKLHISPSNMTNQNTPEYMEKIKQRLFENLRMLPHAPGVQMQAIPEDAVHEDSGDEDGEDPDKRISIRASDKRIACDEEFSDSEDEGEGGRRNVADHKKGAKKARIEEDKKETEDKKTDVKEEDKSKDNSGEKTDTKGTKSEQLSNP
assay_comment: Inhibition of recombinant human full-length C-terminal His-tagged HDAC2 expressed in baculovirus infected Sf9 insect cells using Boc-L-Lys(Ac)-AMC as substrate preincubated for 5 mins followed by substrate addition measured after 35 mins by fluorescence assay
measured_endpoint: pIC50
Keep in mind that pIC50 stands for -log10 of concentration in molar terms.

Record COc1cccc(C2c3ccccc3CCN2CCC(=O)NO)c1 (stereo not given) , field pIC50: 4.16

Record O=C(CCCCN1CCc2ccccc2C1c1ccccc1)NO (stereo not given) , field pIC50: 5.57

Record `O=C(CCCCCCN(Cc1ccccc1)Cc1ccccc1)NO` , field pIC50: 5.57

Record `O=C(CCCCNCc1ccccc1)NO` , field pIC50: 4.24

Record `O=C(CCCCCCNCc1ccccc1)NO` , field pIC50: 5.51

Further cases:
Record CCOc1ccc(C2c3ccccc3CCN2CCC(=O)NO)cc1 (stereo not given) , field pIC50: 4.00

Record O=C(CCN1CCc2ccccc2C1c1ccc2ccccc2c1)NO (stereo not given) , field pIC50: 4.89

Record `O=C(CCCCN(Cc1ccccc1)Cc1ccccc1)NO` , field pIC50: 5.27

Record O=C(CCN1CCc2ccccc2C1c1ccccc1)NO (stereo not given) , field pIC50: 4.40

----------
study_target: Histone deacetylase 3/Nuclear receptor corepressor 2 (HDAC3/NCoR2) (Homo sapiens, UniProt O15379)
Sequence (O15379 whole entry, the tested form may be a part): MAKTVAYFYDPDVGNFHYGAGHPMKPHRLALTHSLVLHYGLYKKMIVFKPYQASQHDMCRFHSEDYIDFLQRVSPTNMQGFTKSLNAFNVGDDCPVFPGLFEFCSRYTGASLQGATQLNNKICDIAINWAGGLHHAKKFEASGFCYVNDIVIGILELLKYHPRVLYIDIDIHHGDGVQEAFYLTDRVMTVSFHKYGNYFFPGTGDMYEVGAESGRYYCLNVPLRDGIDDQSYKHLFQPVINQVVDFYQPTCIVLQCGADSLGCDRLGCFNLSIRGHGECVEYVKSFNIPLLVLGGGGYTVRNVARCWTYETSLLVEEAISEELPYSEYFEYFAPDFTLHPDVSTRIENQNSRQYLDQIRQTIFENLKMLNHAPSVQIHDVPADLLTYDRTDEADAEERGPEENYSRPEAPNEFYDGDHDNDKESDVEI
Sequence (Q9Y618 whole entry, further chain, the tested form may be a part): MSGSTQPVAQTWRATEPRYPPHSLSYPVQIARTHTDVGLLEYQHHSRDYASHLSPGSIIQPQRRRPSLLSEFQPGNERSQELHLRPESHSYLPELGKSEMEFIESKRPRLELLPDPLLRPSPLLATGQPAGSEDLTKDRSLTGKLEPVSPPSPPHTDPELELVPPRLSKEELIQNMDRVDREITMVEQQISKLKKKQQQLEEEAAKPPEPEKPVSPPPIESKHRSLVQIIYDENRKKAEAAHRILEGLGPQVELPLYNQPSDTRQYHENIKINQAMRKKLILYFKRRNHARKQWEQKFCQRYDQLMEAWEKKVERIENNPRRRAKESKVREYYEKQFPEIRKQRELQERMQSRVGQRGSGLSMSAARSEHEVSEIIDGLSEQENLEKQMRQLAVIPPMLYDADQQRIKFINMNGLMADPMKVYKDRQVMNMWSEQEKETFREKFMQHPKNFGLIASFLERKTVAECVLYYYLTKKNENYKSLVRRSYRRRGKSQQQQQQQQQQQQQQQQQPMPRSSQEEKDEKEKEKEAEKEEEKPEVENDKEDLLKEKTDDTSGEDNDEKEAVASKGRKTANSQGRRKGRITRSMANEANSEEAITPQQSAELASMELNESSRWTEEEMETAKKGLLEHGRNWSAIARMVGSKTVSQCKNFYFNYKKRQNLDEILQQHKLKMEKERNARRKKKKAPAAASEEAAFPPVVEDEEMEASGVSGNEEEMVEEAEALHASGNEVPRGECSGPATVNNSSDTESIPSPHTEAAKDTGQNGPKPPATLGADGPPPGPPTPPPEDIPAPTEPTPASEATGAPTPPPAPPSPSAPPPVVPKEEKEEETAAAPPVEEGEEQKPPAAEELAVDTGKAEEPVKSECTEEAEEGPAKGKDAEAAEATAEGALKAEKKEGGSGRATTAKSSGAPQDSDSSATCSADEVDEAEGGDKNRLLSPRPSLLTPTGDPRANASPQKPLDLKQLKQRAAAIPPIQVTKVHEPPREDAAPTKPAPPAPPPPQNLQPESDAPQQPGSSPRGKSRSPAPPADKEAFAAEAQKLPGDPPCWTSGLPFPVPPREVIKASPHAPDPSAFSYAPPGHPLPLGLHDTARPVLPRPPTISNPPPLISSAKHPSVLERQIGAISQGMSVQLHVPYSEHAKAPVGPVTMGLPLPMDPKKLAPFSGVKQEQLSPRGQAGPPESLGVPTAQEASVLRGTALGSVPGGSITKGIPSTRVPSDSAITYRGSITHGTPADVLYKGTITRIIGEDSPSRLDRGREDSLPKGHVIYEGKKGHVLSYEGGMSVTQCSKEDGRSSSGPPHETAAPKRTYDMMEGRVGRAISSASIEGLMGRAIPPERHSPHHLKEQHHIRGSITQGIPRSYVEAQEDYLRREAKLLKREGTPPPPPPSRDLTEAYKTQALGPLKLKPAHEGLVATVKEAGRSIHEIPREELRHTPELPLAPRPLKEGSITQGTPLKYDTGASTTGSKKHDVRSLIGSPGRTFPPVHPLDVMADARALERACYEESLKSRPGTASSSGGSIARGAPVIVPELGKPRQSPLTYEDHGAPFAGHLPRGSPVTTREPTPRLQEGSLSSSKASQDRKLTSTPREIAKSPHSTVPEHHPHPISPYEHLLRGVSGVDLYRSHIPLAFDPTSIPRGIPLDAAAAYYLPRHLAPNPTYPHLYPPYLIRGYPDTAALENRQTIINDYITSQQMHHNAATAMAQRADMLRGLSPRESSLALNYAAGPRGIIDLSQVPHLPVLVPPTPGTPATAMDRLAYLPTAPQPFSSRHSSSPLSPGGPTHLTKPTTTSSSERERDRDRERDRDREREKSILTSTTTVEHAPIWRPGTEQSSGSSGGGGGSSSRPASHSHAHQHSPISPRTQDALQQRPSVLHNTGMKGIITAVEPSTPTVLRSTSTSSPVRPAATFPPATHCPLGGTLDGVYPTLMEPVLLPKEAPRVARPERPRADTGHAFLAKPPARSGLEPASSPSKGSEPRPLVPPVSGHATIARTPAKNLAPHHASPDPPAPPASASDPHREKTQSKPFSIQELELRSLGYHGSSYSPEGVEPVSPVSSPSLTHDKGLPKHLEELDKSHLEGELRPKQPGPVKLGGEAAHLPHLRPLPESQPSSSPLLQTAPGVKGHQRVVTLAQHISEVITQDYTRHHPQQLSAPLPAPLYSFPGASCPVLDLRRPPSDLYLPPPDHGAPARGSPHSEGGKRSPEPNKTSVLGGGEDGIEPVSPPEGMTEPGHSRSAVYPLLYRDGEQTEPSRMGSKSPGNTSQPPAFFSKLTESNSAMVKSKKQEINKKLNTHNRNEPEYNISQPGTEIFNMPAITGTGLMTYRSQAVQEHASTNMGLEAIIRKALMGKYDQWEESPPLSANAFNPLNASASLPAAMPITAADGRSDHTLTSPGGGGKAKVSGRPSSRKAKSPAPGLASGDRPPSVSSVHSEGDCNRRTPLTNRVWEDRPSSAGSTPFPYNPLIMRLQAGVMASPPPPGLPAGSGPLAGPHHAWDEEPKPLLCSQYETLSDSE
assay_comment: Inhibition of recombinant human full-length C-terminal His-tagged HDAC3 (395 to 489 residues)/human NCOR2 expressed in baculovirus infected Sf9 insect cells using Boc-L-Lys(Ac)-AMC as substrate pretreated for 5 mins followed by substrate addition measured after 35 mins by fluorescence assay
Recorded measurements of log10 of IC50, one per entry
Hi team, quick reminder: these entries are log10 of IC50 (µM).

Below, 5 molecules whose answers are already recorded.
Record O=C(CCN1CCc2ccccc2C1c1ccc(-c2ccccc2)cc1)NO (configuration not stated) , field log10 of IC50: 1.58

Record `O=C(CCN(Cc1ccccc1)Cc1ccccc1)NO` , field log10 of IC50: 1.72

Record COc1cccc(C2c3ccccc3CCN2CCC(=O)NO)c1 (configuration not stated) , field log10 of IC50: 1.53

Record `O=C(CCCCN(Cc1ccccc1)Cc1ccccc1)NO` , field log10 of IC50: 0.15

Record O=C(CCN1CCc2ccccc2C1c1ccc2ccccc2c1)NO (configuration not stated) , field log10 of IC50: 0.53

Next molecule, please.
Record `O=C(CCCCNCc1ccccc1)NO` , field log10 of IC50: 1.34

----------
study_target: Histone deacetylase 8 (Homo sapiens, UniProt Q9BY41)
Sequence (Q9BY41 whole entry): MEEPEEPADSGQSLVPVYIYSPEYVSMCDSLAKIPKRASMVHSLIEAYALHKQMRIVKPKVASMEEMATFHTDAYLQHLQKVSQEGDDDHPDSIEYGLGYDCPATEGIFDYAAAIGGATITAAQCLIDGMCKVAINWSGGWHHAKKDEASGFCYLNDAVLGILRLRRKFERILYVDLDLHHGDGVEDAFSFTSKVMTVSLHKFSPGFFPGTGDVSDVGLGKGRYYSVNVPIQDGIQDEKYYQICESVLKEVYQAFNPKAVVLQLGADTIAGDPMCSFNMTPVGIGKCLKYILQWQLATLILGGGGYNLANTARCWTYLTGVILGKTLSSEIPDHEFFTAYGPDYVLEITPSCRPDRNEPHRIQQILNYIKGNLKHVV
assay_comment: Inhibition of recombinant HDAC8 (unknown origin) expressed in Escherichia coli using fluor de Lys(R) as substrate pretreated for 5 mins followed by substrate addition measured after 35 mins by fluorescence assay
Recorded measurements of pIC50, one per entry
Keep in mind that pIC50 stands for -log10 of concentration in molar terms.

Below, 6 molecules whose answers are already recorded.
Item: CC(C)(C)c1ccc(C2c3ccccc3CCN2CCC(=O)NO)cc1 (centres undefined) | System: Histone deacetylase 8 (Homo sapiens, UniProt Q9BY41) | pIC50: 6.32

Item: O=C(CCN1CCc2ccccc2C1c1ccc(C(F)(F)F)cc1)NO (centres undefined) | System: Histone deacetylase 8 (Homo sapiens, UniProt Q9BY41) | pIC50: 6.72

Item: O=C(CCN1CCc2ccccc2C1c1ccc(-c2ccccc2)cc1)NO (centres undefined) | System: Histone deacetylase 8 (Homo sapiens, UniProt Q9BY41) | pIC50: 7.26

Item: `O=C(CCCCN(Cc1ccccc1)Cc1ccccc1)NO` | System: Histone deacetylase 8 (Homo sapiens, UniProt Q9BY41) | pIC50: 5.72

Item: O=C(CCN1CCc2ccccc2C1c1ccccc1)NO (centres undefined) | System: Histone deacetylase 8 (Homo sapiens, UniProt Q9BY41) | pIC50: 6.02

Item: O=C(CN1CCc2ccccc2C1c1ccccc1)NO (centres undefined) | System: Histone deacetylase 8 (Homo sapiens, UniProt Q9BY41) | pIC50: 4.72

Further cases:
Item: COc1cccc(C2c3ccccc3CCN2CCC(=O)NO)c1 (centres undefined) | System: Histone deacetylase 8 (Homo sapiens, UniProt Q9BY41) | pIC50: 6.96

Item: `O=C(CCCCCCN1CCc2ccccc2C1)NO` | System: Histone deacetylase 8 (Homo sapiens, UniProt Q9BY41) | pIC50: 5.72

Item: `O=C(CCCCCCNCc1ccccc1)NO` | System: Histone deacetylase 8 (Homo sapiens, UniProt Q9BY41) | pIC50: 5.74

Item: `O=C(CCN1CCc2ccccc2C1)NO` | System: Histone deacetylase 8 (Homo sapiens, UniProt Q9BY41) | pIC50: 4.72

Item: `O=C(CCCCCCN(Cc1ccccc1)Cc1ccccc1)NO` | System: Histone deacetylase 8 (Homo sapiens, UniProt Q9BY41) | pIC50: 5.40

Item: `O=C(CCCCNCc1ccccc1)NO` | System: Histone deacetylase 8 (Homo sapiens, UniProt Q9BY41) | pIC50: 5.00

Item: `O=C(CCN(Cc1ccccc1)Cc1ccccc1)NO` | System: Histone deacetylase 8 (Homo sapiens, UniProt Q9BY41) | pIC50: 5.85

----------
study_target: Histone deacetylase 8 (Homo sapiens)
assay_comment: Inhibition of recombinant HDAC8 (unknown origin) expressed in Escherichia coli using fluor de Lys(R) as substrate pretreated for 5 mins followed by substrate addition measured after 35 mins by fluorescence assay
pIC50: −log10 of the molar value.
So basically: pIC50 at 7 or higher? That is yes. Lower than 7? That is no.

Here are 2 compounds together with their reported answers.
Determine whether this compound has pIC50 no lower than 7: CCOc1ccc(C2c3ccccc3CCN2CCC(=O)NO)cc1 (stereo unspecified)
no

Determine whether this compound has pIC50 no lower than 7: O=C(CCN1CCc2ccccc2C1c1cccc(C(F)(F)F)c1)NO (stereo unspecified)
no

Further cases:
Determine whether this compound has pIC50 no lower than 7: O=C(CCCCN1CCc2ccccc2C1c1ccccc1)NO (stereo unspecified)
yes

Determine whether this compound has pIC50 no lower than 7: O=C(CCN1CCc2ccccc2C1c1ccc2ccccc2c1)NO (stereo unspecified)
no

Determine whether this compound has pIC50 no lower than 7: O=C(CCN1CCc2ccccc2C1C1CCCCC1)NO (stereo unspecified)
no

----------
study_target: Histone deacetylase 1 (Homo sapiens, UniProt Q13547)
assay_comment: Inhibition of recombinant full-length human C-terminal FLAG-His-tagged HDAC1 expressed in baculovirus infected Sf9 insect cells using Boc-L-Lys(Ac)-AMC as substrate preincubated for 5 mins followed by substrate addition measured after 35 mins by fluorescence assay
measured_endpoint: IC50 (µM)
Output spec: scalar in µM, unitless text.

Item: CC(C)(C)c1ccc(C2c3ccccc3CCN2CCC(=O)NO)cc1 (configuration not stated) | System: Histone deacetylase 1 (Homo sapiens, UniProt Q13547) | IC50: 18

Further cases:
Item: `O=C(CCCCCCN(Cc1ccccc1)Cc1ccccc1)NO` | System: Histone deacetylase 1 (Homo sapiens, UniProt Q13547) | IC50: 1.1

Item: `O=C(CCCCCCNCc1ccccc1)NO` | System: Histone deacetylase 1 (Homo sapiens, UniProt Q13547) | IC50: 0.34

Item: `O=C(CCCCCCN1CCc2ccccc2C1)NO` | System: Histone deacetylase 1 (Homo sapiens, UniProt Q13547) | IC50: 0.098

Item: `O=C(CCN1CCc2ccccc2C1)NO` | System: Histone deacetylase 1 (Homo sapiens, UniProt Q13547) | IC50: 57

Item: COc1cccc(C2c3ccccc3CCN2CCC(=O)NO)c1 (configuration not stated) | System: Histone deacetylase 1 (Homo sapiens, UniProt Q13547) | IC50: 13
